- targetSystem: Sodium-dependent noradrenaline transporter (Homo sapiens, UniProt P23975)
- Sequence (P23975 whole entry): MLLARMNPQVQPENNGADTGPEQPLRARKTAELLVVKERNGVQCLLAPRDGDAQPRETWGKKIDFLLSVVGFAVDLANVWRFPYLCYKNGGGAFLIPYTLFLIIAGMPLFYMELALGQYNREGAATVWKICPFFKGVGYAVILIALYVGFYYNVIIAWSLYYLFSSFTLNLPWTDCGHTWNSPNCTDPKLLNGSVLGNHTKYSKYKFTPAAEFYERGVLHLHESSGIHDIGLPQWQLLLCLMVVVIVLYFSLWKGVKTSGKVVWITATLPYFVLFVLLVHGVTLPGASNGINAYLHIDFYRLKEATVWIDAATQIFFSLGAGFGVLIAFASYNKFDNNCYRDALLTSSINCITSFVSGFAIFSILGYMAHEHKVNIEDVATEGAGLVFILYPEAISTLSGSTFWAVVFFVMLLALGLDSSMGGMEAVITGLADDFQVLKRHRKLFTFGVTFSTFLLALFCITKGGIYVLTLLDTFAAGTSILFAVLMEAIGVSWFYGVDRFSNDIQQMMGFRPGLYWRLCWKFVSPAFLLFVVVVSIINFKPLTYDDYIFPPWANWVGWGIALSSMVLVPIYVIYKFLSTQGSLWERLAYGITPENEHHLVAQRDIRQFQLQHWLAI
- procedureDetails: Displacement of [3H]nisoxetine from human NET expressed in COS7 cells
- Assay type: cell-based
- conditionSummary: COS-7
Calls of active or inactive are those of the source. The rule behind the calls is not given here.
Outcomes: y = active, n = inactive

smilescode=CC(C)C[C@@H]1NC(=O)[C@H](CCCCN)NC(=O)[C@H](Cc2ccc(O)cc2)NC(=O)CNC(=O)[C@H]2CSSC[C@@H](NC1=O)C(=O)N[C@@H](Cc1cnc[nH]1)C(=O)N1CC[C@H](O)[C@H]1C(=O)N[C@H](C(=O)O)CSSC[C@H](NC(=O)[C@@H](NC(=O)CNC(=O)[C@@H]1CCC(=O)N1)C(C)C)C(=O)N2 targetsystem="Sodium-dependent noradrenaline transporter (Homo sapiens, UniProt P23975)" classlabel=n
smilescode=COc1ccc(C[C@H]2NC(=O)[C@H](Cc3cnc[nH]3)NC(=O)[C@@H]3CSSC[C@H](NC(=O)[C@@H](NC(=O)[C@@H](NC(=O)CNC(=O)[C@@H]4CCC(=O)N4)C(C)C)CSSC[C@@H](C(=O)O)NC2=O)C(=O)NCC(=O)N[C@@H](Cc2ccc(O)cc2)C(=O)N[C@@H](CCCCN)C(=O)N[C@@H](CC(C)C)C(=O)N3)cc1 targetsystem="Sodium-dependent noradrenaline transporter (Homo sapiens, UniProt P23975)" classlabel=y
smilescode=CC(C)C[C@@H]1NC(=O)[C@H](CCCCN)NC(=O)[C@H](CCC(=O)O)NC(=O)CNC(=O)[C@@H]2CSSC[C@H](NC1=O)C(=O)N[C@@H](Cc1cnc[nH]1)C(=O)N1CC[C@H](O)[C@H]1C(=O)N[C@H](C(=O)O)CSSC[C@H](NC(=O)[C@@H](NC(=O)CNC(=O)[C@@H]1CCC(=O)N1)C(C)C)C(=O)N2 targetsystem="Sodium-dependent noradrenaline transporter (Homo sapiens, UniProt P23975)" classlabel=n
smilescode=CC(C)C[C@@H]1NC(=O)[C@H](CCCCN)NC(=O)[C@H](Cc2ccc(O)cc2)NC(=O)CNC(=O)[C@@H]2CSSC[C@H](NC1=O)C(=O)N[C@@H](Cc1cnc[nH]1)C(=O)N[C@H](CC(=O)O)C(=O)N[C@H](C(=O)O)CSSC[C@H](NC(=O)[C@@H](NC(=O)CNC(=O)[C@@H]1CCC(=O)N1)C(C)C)C(=O)N2 targetsystem="Sodium-dependent noradrenaline transporter (Homo sapiens, UniProt P23975)" classlabel=n
smilescode=COc1ccc(C[C@@H]2NC(=O)CNC(=O)[C@@H]3CSSC[C@H](NC(=O)[C@H](CC(C)C)NC(=O)[C@H](CCCCN)NC2=O)C(=O)N[C@@H](Cc2cnc[nH]2)C(=O)N2CC[C@H](O)[C@H]2C(=O)N[C@H](C(=O)O)CSSC[C@H](NC(=O)[C@@H](NC(=O)CNC(=O)[C@@H]2CCC(=O)N2)C(C)C)C(=O)N3)c(OC)c1 targetsystem="Sodium-dependent noradrenaline transporter (Homo sapiens, UniProt P23975)" classlabel=n
smilescode=CC(C)C[C@@H]1NC(=O)[C@H](CCCCN)NC(=O)[C@H](Cc2ccc(O)cc2)NC(=O)CNC(=O)[C@@H]2CSSC[C@@H](NC1=O)C(=O)N[C@@H](Cc1cnc[nH]1)C(=O)N1CC[C@H](O)[C@H]1C(=O)N[C@H](C(=O)O)CSSC[C@H](NC(=O)[C@@H](NC(=O)CNC(=O)[C@@H]1CCC(=O)N1)C(C)C)C(=O)N2 targetsystem="Sodium-dependent noradrenaline transporter (Homo sapiens, UniProt P23975)" classlabel=n

Hello, the source for this data is ChEMBL document CHEMBL1154792, in case you need it.
